# Tested Target: T1, AtTCP10-DBD RR mutant (UniProt O82277 1-87, R46A;R48A)
# T1 sequence: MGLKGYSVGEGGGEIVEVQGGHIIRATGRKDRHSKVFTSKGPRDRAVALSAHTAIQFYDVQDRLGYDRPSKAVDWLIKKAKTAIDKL
# Test Protocol: ITC
Assay Metric: pKd
One number for each entry, as −log10 of the molar value.

// lookup pKd for three-site class II DNA (dsDNA) DNA 1: ATGTGGTCCCCACT DNA 2: TAGTGGGGACCACA
5.95
